For each entry below, report its IC50 value.
TEST TARGET: L-type calcium ion channels (Cavia porcellus)
Sequence (O35505 whole entry): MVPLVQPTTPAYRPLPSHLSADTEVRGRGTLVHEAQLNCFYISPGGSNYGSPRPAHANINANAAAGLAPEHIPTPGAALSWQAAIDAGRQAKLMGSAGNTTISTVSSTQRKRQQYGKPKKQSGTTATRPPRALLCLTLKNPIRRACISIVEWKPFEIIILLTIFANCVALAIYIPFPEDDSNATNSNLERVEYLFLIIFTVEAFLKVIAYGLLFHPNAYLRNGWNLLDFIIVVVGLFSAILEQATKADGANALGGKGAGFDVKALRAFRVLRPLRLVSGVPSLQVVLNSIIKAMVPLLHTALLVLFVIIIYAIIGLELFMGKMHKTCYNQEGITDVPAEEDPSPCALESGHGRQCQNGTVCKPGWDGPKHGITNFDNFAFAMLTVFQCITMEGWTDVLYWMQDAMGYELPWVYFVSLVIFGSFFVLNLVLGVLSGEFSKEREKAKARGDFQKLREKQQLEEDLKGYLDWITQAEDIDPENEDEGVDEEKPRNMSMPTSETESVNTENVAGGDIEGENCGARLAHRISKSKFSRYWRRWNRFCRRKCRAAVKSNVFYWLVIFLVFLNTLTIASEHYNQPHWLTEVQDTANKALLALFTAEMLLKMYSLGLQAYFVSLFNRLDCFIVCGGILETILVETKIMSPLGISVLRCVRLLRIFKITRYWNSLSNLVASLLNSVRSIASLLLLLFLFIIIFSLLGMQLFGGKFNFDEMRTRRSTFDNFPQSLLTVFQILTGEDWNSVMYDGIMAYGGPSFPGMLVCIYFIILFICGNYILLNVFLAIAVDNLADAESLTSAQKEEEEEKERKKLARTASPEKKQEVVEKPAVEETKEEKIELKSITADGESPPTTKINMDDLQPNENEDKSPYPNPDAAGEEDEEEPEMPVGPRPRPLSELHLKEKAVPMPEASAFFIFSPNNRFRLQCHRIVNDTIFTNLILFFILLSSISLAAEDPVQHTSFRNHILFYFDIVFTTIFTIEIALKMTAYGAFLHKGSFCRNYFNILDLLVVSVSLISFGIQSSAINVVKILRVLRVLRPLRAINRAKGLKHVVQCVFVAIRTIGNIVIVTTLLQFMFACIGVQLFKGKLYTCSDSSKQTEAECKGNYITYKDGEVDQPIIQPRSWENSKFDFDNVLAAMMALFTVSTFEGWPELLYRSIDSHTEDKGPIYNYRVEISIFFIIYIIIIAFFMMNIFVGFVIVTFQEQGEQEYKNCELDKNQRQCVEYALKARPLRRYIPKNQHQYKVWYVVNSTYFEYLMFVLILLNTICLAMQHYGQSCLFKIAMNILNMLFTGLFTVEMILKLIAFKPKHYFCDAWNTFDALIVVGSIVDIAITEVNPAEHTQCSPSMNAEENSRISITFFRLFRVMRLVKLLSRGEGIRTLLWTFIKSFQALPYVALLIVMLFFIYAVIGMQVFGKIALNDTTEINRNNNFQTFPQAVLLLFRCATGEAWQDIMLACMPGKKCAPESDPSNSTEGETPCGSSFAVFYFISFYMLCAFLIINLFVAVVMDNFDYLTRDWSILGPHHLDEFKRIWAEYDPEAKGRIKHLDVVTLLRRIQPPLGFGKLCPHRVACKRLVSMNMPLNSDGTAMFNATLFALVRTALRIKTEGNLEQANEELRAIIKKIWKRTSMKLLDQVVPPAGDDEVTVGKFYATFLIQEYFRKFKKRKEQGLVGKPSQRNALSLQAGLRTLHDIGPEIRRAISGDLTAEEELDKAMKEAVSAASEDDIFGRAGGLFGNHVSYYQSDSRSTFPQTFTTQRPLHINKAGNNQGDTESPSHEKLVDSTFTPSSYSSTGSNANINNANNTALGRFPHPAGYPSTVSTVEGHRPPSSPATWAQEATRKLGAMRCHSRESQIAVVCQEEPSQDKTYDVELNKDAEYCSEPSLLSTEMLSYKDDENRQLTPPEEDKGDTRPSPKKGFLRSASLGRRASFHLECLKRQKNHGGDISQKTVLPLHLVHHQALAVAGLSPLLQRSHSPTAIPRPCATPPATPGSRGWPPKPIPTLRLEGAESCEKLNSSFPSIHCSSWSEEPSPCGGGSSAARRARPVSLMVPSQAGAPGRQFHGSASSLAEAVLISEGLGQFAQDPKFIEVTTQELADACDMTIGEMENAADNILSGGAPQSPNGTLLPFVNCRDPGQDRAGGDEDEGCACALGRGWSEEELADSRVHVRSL
TEST DETAILS: L-type calcium ion channel inhibition, whole cell patch-clamp (electrophysiological method)
Assay type: cell-based
CONDITION PARAMETERS: left ventricle muscle cells of guinea pigs, room temperature
Write the answer as a number in µM, unit excluded.

Input: Please look up its IC50: COC(=O)C1=C(C)NC(C)=C(C(=O)OC(C)(C)CN(C)CCC(c2ccccc2)c2ccccc2)C1c1cccc([N+](=O)[O-])c1 (centres unmarked) [lercanidipine, reference compound]
Output: 0.84

Input: // repeat for CCOC(=O)C1=C(COCCN)NC(C)=C(C(=O)OC)C1c1ccccc1Cl (centres unmarked) [amlodipine, reference compound] and report
Output: 1.11

Input: // repeat for COC(=O)C1=C(C)NC(C)=C(C(=O)O[C@]2(C)CCN(CCC(c3ccccc3)c3ccccc3)C2)[C@H]1c1cccc([N+](=O)[O-])c1 and report
Output: 0.93

Input: // repeat for CC1=C(C(=O)OC(C)C)C(c2cccc([N+](=O)[O-])c2)C(C(=O)OC2CN(C(c3ccccc3)c3ccccc3)C2)=C(N)N1 (centres unmarked) [azelnidipine, reference compound] and report
Output: 1.39

Input: // repeat for COC(=O)C1=C(C)NC(C)=C(C(=O)O[C@@]2(C)CCN(CCC(c3ccccc3)c3ccccc3)C2)[C@H]1c1cccc([N+](=O)[O-])c1 and report
Output: 0.59

Input: // repeat for COC(=O)C1=C(C)NC(C)=C(C(=O)OC2(C)CCN(CCC(c3ccccc3)c3ccccc3)C2)[C@H]1c1cccc([N+](=O)[O-])c1 (some centres unmarked) and report
Output: 1.28

Input: // repeat for COC(=O)C1=C(C)NC(C)=C(C(=O)OC2(C)CCN(CCC(c3ccccc3)c3ccccc3)C2)[C@@H]1c1cccc([N+](=O)[O-])c1 (some centres unmarked) and report
Output: 0.59

Input: // repeat for COC(=O)C1=C(C)NC(C)=C(C(=O)O[C@H]2CCN(Cc3ccccc3)C2)[C@H]1c1cccc([N+](=O)[O-])c1 [barnidipine, reference compound] and report
Output: 0.58
